- TGT: T1, human CEACAM5 (carcinoembryonic antigen, CEA) on cells (human, UniProt P06731 35-685)
- T1 construct: endogenous on MKN45 gastric adenocarcinoma cells; full-length cDNA stably transfected in the CHO-K1 clones; also called huCEACAM5; MKN45 cells
- T1 sequence: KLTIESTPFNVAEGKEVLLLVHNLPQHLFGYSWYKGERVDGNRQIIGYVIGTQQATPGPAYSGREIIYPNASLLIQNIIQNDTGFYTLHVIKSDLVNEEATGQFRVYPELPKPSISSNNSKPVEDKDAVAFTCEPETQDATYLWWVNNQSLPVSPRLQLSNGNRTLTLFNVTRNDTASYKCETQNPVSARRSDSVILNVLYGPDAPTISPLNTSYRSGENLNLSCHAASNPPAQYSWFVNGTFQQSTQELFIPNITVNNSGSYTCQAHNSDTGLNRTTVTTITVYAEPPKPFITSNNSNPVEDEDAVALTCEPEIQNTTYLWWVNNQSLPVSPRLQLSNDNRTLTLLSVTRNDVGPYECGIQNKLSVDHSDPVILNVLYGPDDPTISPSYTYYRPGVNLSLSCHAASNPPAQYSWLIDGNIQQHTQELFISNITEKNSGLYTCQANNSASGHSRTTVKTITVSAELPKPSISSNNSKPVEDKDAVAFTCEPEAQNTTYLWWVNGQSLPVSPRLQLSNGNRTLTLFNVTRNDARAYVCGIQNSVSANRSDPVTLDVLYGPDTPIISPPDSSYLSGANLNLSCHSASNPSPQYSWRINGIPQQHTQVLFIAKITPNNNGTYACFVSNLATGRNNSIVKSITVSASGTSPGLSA
- EXPERIMENT: flow cytometry, MKN45 cells
- Parameters: unit not given beside the values
OUTCOME MEASURE: AUC
Give the figure by itself; no unit, no explanation.

- P1AE0096-001 MFE23 huIgG1 PG LALA (parental) (antibody, V domains shown, murine variable domains on huIgG1 P329G L234A L235A; also called parental murine MFE23 huIgG1 P329G LALA antibody) VH: QVKLQQSGAELVRSGTSVKLSCTASGFNIKDSYMHWLRQGPEQGLEWIGWIDPENGDTEYAPKFQGKATFTTDTSSNTAYLQLSSLTSEDTAVYYCNEGTPTGPYYFDYWGQGTTVTVSS VL: ENVLTQSPAIMSASPGEKVTITCSASSSVSYMHWFQQKPGTSPKLWIYSTSNLASGVPARFSGSGSGTSYSLTISRMEAEDAATYYCQQRSSYPLTFGAGTKLELK: 83500

Query P1AE3090 (antibody, IgG1, V domains shown, huIgG1 P329G LALA; also called MFE-H29 / MFE-L29) VH: QVQLVQSGAEVKKPGSSVKVSCKASGFNIKDSYMHWVRQAPGQGLEWMGWIDPENGDTEYAPKFQGRVTITTDESTSTAYMELSSLRSEDTAVYYCNEGTPTGPYYFDYWGQGTLVTVSS VL: EIQMTQSPSSLSASVGDRVTITCRASSSVPYMHWLQQKPGKAPKLLIYSTSSLQSGVPSRFSGSGSGTDFTLTISSVQPEDFATYYCQQRSSYPLTFGGGTKLEIK yields AUC of 61800

For this binder ( P1AE3099 (antibody, IgG1, V domains shown, huIgG1 P329G LALA; also called MFE-H26 / MFE-L28) VH: QVQLVQSGAEVKKPGASVKVSCKASGFNIKDSYMHWVRQAPGQGLEWMGWIDPENGGTNYAQKFQGRVTMTTDTSISTAYMELSRLRSDDTAVYYCNEGTPTGPYYFDYWGQGTLVTVSS VL: EIQMTQSPSSLSASVGDRVTITCRASSSVPYMHWLQQKPGKAPKLLIYSTSNLASGVPSRFSGSGSGTDFTLTISSVQPEDFATYYCQQRSSYPLTFGGGTKLEIK ), measured AUC is 95300

Data provenance is patent US20220267464A1.
